Molecular target: T1, N terminally GST-tagged full-length neurofibromin 2, wild type (human, UniProt P35240 1-595, labeled with NT-647 red dye (maleimide conjugated cysteine reactive or NHS conjugated lysine reactive))
T1 construct: neurofibromin 2 (merlin), human, full length, residues 1-595; also called NF2; merlin; source: E. coli BL21(DE3) Rosetta2, purified (GST column); not shown: GST, N-terminal, kept
T1 sequence (looked up): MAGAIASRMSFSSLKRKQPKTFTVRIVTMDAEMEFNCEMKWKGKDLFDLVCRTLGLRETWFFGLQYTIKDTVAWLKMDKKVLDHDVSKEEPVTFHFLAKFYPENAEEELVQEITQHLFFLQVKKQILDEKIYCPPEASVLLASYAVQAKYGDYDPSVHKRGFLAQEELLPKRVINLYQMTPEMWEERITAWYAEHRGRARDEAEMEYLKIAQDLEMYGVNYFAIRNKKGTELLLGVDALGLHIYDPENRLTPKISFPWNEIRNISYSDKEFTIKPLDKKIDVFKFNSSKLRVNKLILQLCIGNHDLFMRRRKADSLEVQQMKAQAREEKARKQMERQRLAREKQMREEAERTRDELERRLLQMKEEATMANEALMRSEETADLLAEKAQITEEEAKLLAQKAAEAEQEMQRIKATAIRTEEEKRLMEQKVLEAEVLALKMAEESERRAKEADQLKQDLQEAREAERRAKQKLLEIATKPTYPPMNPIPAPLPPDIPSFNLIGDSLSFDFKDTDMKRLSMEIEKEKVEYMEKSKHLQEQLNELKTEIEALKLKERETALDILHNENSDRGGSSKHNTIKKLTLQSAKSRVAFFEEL
Assay: MST; as a1, but LATS1 69-100 titrated into the neurofibromin 2/PIP2 complex (in the presence of PIP2)
Settings: both partners purified
Property name: pKd
In textbook form, pKd equals minus log to base ten of the concentration in mol/L.

stdin: Reported pKd for PKFGTHHKALQEIRNSLLPFANETNSSRSTSE (domain or fragment, UniProt O95835 69-100, looked up, Hippo pathway kinase LATS1, residues 69-100; it was unlabeled; also called LATS1 kinase; LAST1 residues 69-100) [LATS1 (residues 69-100)] : what is it?
stdout: 5.42
